Source listed as the CheMixHub viscosity set.

assay: xn = mol fraction of the nth substance listed; settings: 318.15 K; 103 kPa; x1 = 0.6
Below: a set of entries, each annotated with reported viscosity.
Assay Metric: viscosity (mPa·s)

1. C[Si]1(C)O[Si](C)(C)O[Si](C)(C)O[Si](C)(C)O1 + CCCCCCCCCCCCC = 1.191
2. C[Si]1(C)O[Si](C)(C)O[Si](C)(C)O[Si](C)(C)O1 + CCCCCCCCCCCCCC = 1.279
3. C[Si]1(C)O[Si](C)(C)O[Si](C)(C)O[Si](C)(C)O1 + CCCCCCCCCCCC = 1.114
4. C[Si]1(C)O[Si](C)(C)O[Si](C)(C)O[Si](C)(C)O1 + CCCCCCCCCC = 0.943
